Reported IC50, human Cathepsin S (Homo sapiens (Human)).

>  <item smiles>
N#CC1(NC(=O)[C@@H]2C[C@@H](Sc3ccccn3)CN2C(=O)C2(c3ncc(Cl)cc3F)CC2)CC1

>  <IC50>
594 nM

$$$$
>  <item smiles>
N#CC1(NC(=O)[C@@H]2C[C@H](S(=O)(=O)c3ccc(F)cc3Cl)CN2C(=O)C2(c3ncc(Cl)cc3F)CC2)CC1

>  <IC50>
11.1 nM

$$$$
>  <item smiles>
COc1ccc(S(=O)(=O)[C@@H]2C[C@@H](C(=O)NC3(C#N)CC3)N(C(=O)C3(c4ncc(Cl)cc4F)CC3)C2)c(Cl)c1

>  <IC50>
0.393 nM

$$$$
>  <item smiles>
N#CC1(NC(=O)[C@@H]2C[C@@H](S(=O)(=O)c3ccccc3Cl)CN2C(=O)C2(c3ncc(Br)cc3F)CC2)CC1

>  <IC50>
0.438 nM

$$$$
>  <item smiles>
N#CC1(NC(=O)[C@@H]2C[C@@H](Sc3ccc(C(F)(F)F)cn3)CN2C(=O)C2(c3ncc(Cl)cc3F)CC2)CC1

>  <IC50>
393 nM

$$$$
>  <item smiles>
N#CC1(NC(=O)[C@@H]2C[C@@H](Sc3cccc(-c4ccc(F)cc4)c3)CN2C(=O)C2(c3ncc(Cl)cc3F)CC2)CC1

>  <IC50>
11.8 nM

$$$$

---

Reported pIC50, human Cat L (Homo sapiens (Human), UniProt P07711).
pIC50: −log10 of the molar value.

>  <item smiles>
COc1ccc(S(=O)(=O)[C@@H]2C[C@@H](C(=O)NC3(C#N)CC3)N(C(=O)C3(c4ncc(Br)cc4F)CC3)C2)c(Cl)c1

>  <pIC50>
7.59

$$$$
>  <item smiles>
N#CC1(NC(=O)[C@@H]2C[C@@H](S(=O)(=O)c3ccccc3-n3cncn3)CN2C(=O)C2(c3ncc(I)cc3F)CC2)CC1

>  <pIC50>
4.55

$$$$
>  <item smiles>
N#CC1(NC(=O)[C@@H]2C[C@@H](S(=O)(=O)c3ccccc3-n3cccn3)CN2C(=O)C2(c3ncc(I)cc3F)CC2)CC1

>  <pIC50>
7.04

$$$$
>  <item smiles>
N#CC1(NC(=O)[C@@H]2C[C@@H](S(=O)(=O)c3ccccc3Cl)CN2C(=O)C2(c3ccc(Cl)cn3)CC2)CC1

>  <pIC50>
6.47

$$$$
>  <item smiles>
N#CC1(NC(=O)[C@@H]2C[C@@H](S(=O)(=O)c3ccccc3F)CN2C(=O)C2(c3ncc(Cl)cc3F)CC2)CC1

>  <pIC50>
7.51

$$$$
>  <item smiles>
Cn1cc(-c2ccc(S(=O)(=O)[C@@H]3C[C@@H](C(=O)NC4(C#N)CC4)N(C(=O)C4(c5ncc(C(F)(F)F)cc5F)CC4)C3)c(Cl)c2)cn1

>  <pIC50>
7.36

$$$$
>  <item smiles>
N#CC1(NC(=O)[C@@H]2C[C@@H](S(=O)(=O)c3ccccc3Cl)CN2C(=O)C2(c3ncc(Cl)cc3F)CC2)CC1

>  <pIC50>
7.89

$$$$
>  <item smiles>
N#CC1(NC(=O)[C@@H]2C[C@@H](Sc3cccc(-c4ccc(F)cc4)c3)CN2C(=O)C2(c3ncc(Cl)cc3F)CC2)CC1

>  <pIC50>
6.38

$$$$
>  <item smiles>
N#CC1(NC(=O)[C@@H]2C[C@@H](S(=O)(=O)c3cccc(-c4ccc(F)cc4)c3)CN2C(=O)C2(c3ncc(Cl)cc3F)CC2)CC1

>  <pIC50>
6.61

$$$$
>  <item smiles>
N#CC1(NC(=O)[C@@H]2C[C@@H](S(=O)(=O)c3ccccc3-n3ccnn3)CN2C(=O)C2(c3ncc(Cl)cc3F)CC2)CC1

>  <pIC50>
4.45

$$$$
>  <item smiles>
Cc1cccc(S(=O)(=O)[C@@H]2C[C@@H](C(=O)NC3(C#N)CC3)N(C(=O)C3(c4ncc(Cl)cc4F)CC3)C2)n1

>  <pIC50>
5.25

$$$$
>  <item smiles>
N#CC1(NC(=O)[C@@H]2C[C@@H](Sc3ncccc3C(F)(F)F)CN2C(=O)C2(c3ncc(Cl)cc3F)CC2)CC1

>  <pIC50>
5.00

$$$$
>  <item smiles>
N#CC1(NC(=O)[C@@H]2C[C@@H](S(=O)(=O)c3ncccc3C(F)(F)F)CN2C(=O)C2(c3ncc(Cl)cc3F)CC2)CC1

>  <pIC50>
4.88

$$$$
>  <item smiles>
Cc1ncccc1-c1ccc(S(=O)(=O)[C@@H]2C[C@@H](C(=O)NC3(C#N)CC3)N(C(=O)C3(c4ncc(I)cc4F)CC3)C2)c(Cl)c1

>  <pIC50>
8.01

$$$$
